Protocol notes: Cell permeability across Caco-2 cell monolayer
Type: in vitro ADME
Assay setup: human, Caco-2, pH 7.4
Test readout: Papp B→A at 2 h, 2 μM (×10⁻⁶ cm/s)
Field format: number, assumed ×10⁻⁶ cm/s, no unit text.

Find the recorded Papp B→A at 2 h, 2 μM belonging to C#CCn1c(C)c(C(=O)C(=O)NC(C)(C)C#C)c(C)c1C(=O)Nc1ccc(F)c(F)c1 [Compound 10a] and report it. 10.9

---

System: human peripheral blood mononuclear (PBM) cells
Protocol notes: Cytotoxicity, CellTiter 96 assay in PBM cells
Assay type: cell-based
Assay setup: read-out: Cytotoxicity CC50 PBM; PBM cells
Test readout: CC50

# CC50 lookup, item C#CCNC(=O)C(=O)c1c(C)c(C(=O)Nc2ccc(F)c(F)c2)n(C)c1C [GLP-26, reference compound] > 100 µM

---

Protocol notes: Cytotoxicity, CellTiter 96 assay in HepG2 cells
Format: cell-based, human
Assay setup: human, hepatocellular carcinoma (HepG2) cells
Test readout: CC50

Entry under review: C#CCNC(=O)C(=O)c1c(C)c(C(=O)Nc2ccc(F)c(F)c2)n(C2CC2)c1C . Reported CC50? > 100 µM

Recorded CC50 of C#CCNC(=O)C(=O)c1c(C)c(C(=O)Nc2ccc(F)c(F)c2)n(CC#CC)c1C , please. > 100 µM

Fill in the blank: the reported CC50 of C#CCNC(=O)C(=O)c1c(C)c(C(=O)Nc2ccc(F)c(F)c2)n(CC#CCC)c1C is ____. > 100 µM

Would you mind telling me what CC50 value was observed for C#CC1(NC(=O)C(=O)c2c(C)c(C(=O)Nc3ccc(F)c(F)c3)n(C)c2C)CC1 ? > 100 µM

Any idea what its CC50 is? The compound is C#CCNC(=O)C(=O)c1c(C)c(C(=O)Nc2ccc(F)c(F)c2)n(CCC)c1C > 100 µM

Requested read-out: CC50. Entry: C#CC(C)(C)NC(=O)C(=O)c1c(C)c(C(=O)Nc2ccc(F)c(F)c2)n(C)c1C 91 µM

Entry under review: C#CCNC(=O)C(=O)c1c(C)c(C(=O)Nc2ccc(F)c(F)c2)n(CC=C)c1C . Reported CC50? > 100 µM

State the recorded CC50 for this entry: C#CC1(NC(=O)C(=O)c2c(C)c(C(=O)Nc3ccc(F)c(F)c3)n(C)c2C)CCC1 98 µM

What does the record list as CC50 for C#CCNC(=O)C(=O)c1c(C)c(C(=O)Nc2ccc(F)c(F)c2)n(Cc2ccccc2)c1C ? > 100 µM

// CC50 lookup, key: C#CC(C)(CC)NC(=O)C(=O)c1c(C)c(C(=O)Nc2ccc(F)c(F)c2)n(C)c1C (stereo not drawn) 84 µM

What value of CC50 has been reported for the following compound? C#CCn1c(C)c(C(=O)C(=O)NC(C)(C)C#C)c(C)c1C(=O)Nc1ccc(F)c(F)c1 [Compound 10a] > 100 µM

I'd like to know its CC50. The compound in question is C#CCNC(=O)C(=O)c1c(C)c(C(=O)Nc2ccc(F)c(F)c2)n(CC#C)c1C > 100 µM

Any idea what CC50 was measured for C#CC(CC)(CC)NC(=O)C(=O)c1c(C)c(C(=O)Nc2ccc(F)c(F)c2)n(C)c1C ? 44 µM

Form field: reported CC50 of C#CCNC(=O)C(=O)c1c(C)c(C(=O)Nc2ccc(F)c(F)c2)n(CC)c1C > 100 µM

Fill in the blank: the reported CC50 of C#CCn1c(C)c(C(=O)C(=O)NC(C#C)(CC)CC)c(C)c1C(=O)Nc1ccc(F)c(F)c1 [Compound 10b] is ____. 72 µM

Any idea what its CC50 is? The compound is C#CCNC(=O)C(=O)c1c(C)c(C(=O)Nc2ccc(F)c(F)c2)n(CC2CC2)c1C > 100 µM

// CC50 lookup, key: C#CC1(NC(=O)C(=O)c2c(C)c(C(=O)Nc3ccc(F)c(F)c3)n(C)c2C)CCCCC1 42 µM

// lookup CC50 for C#CCNC(=O)C(=O)c1c(C)c(C(=O)Nc2ccc(F)c(F)c2)n(CCCC)c1C > 100 µM

Just for reference, paper PMC10765384 is where these values come from.
